Molecular target: μ opioid receptor (UniProt P35372)
Sequence (P35372 whole entry): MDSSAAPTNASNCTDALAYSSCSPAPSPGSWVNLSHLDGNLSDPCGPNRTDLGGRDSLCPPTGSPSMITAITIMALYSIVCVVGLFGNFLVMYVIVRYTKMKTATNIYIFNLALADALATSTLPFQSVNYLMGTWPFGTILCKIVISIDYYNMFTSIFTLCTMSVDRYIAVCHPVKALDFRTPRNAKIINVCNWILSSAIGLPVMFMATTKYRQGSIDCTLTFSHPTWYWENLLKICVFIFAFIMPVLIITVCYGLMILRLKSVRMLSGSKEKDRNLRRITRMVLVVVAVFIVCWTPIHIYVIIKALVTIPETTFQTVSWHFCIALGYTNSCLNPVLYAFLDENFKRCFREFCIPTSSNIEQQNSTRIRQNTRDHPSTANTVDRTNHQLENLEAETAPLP
Experiment: radioligand binding
Starred links: 1 amine or outer side, 2 acyl side, 3 side chain; linkers in the order of their positions; H or OH if unused. Non-standard residues stand in square brackets, D forms with d. No end group written: not given here. Phe(2-(2-methyl-1-propenyl)) = CC(C)=Cc1ccccc1C[C@H](N[*:1])C(=O)[*:2]; Phe(4-(3-thienyl)) = O=C([C@H](Cc1ccc(-c2ccsc2)cc1)N[*:1])[*:2]; Phe(3-vinyl) = C=Cc1cccc(C[C@H](N[*:1])C(=O)[*:2])c1; Phe(4-vinyl) = C=Cc1ccc(C[C@H](N[*:1])C(=O)[*:2])cc1; Phe(2-vinyl) = C=Cc1ccccc1C[C@H](N[*:1])C(=O)[*:2]; Phe(3-Ph) = N[C@@H](Cc1cccc(-c2ccccc2)c1)C(=O)O; Bip = N[C@@H](Cc1ccc(-c2ccccc2)cc1)C(=O)O; Dmt = Cc1cc(O)cc(C)c1C[C@H](N)C(=O)O
Please respond with reported IC50 for every item in the list.

// query What value of IC50 has been recorded for this entry: [Dmt][dR][Phe(3-Ph)]G-NH2 (N-terminus assumed; SMILES Cc1cc(O)cc(C)c1C[C@H](N)C(=O)N[C@H](CCCNC(=N)N)C(=O)N[C@@H](Cc1cccc(-c2ccccc2)c1)C(=O)NCC(N)=O) [Dmt-D-Arg-Phe(3-phenyl)-Gly-NH2]
// result 0.85 nM

// query Would you kindly repeat that for [Dmt][dR][Phe(4-(3-thienyl))]G-NH2 (N-terminus assumed; SMILES Cc1cc(O)cc(C)c1C[C@H](N)C(=O)N[C@H](CCCNC(=N)N)C(=O)N[C@@H](Cc1ccc(-c2ccsc2)cc1)C(=O)NCC(N)=O) [Dmt-D-Arg-Phe(4-(3-thienyl))-Gly-NH2] ?
// result 5.04 nM

// query Would you kindly repeat that for [Dmt][dR][Phe(4-vinyl)]G-NH2 (N-terminus assumed; SMILES C=Cc1ccc(C[C@H](NC(=O)[C@@H](CCCNC(=N)N)NC(=O)[C@@H](N)Cc2c(C)cc(O)cc2C)C(=O)NCC(N)=O)cc1) [Dmt-D-Arg-Phe(4-vinyl)-Gly-NH2] ?
// result 1.82 nM

// query Would you kindly repeat that for [Dmt][dR][Phe(3-vinyl)]G-NH2 (N-terminus assumed; SMILES C=Cc1cccc(C[C@H](NC(=O)[C@@H](CCCNC(=N)N)NC(=O)[C@@H](N)Cc2c(C)cc(O)cc2C)C(=O)NCC(N)=O)c1) [Dmt-D-Arg-Phe(3-vinyl)-Gly-NH2] ?
// result 0.46 nM

// query Would you kindly repeat that for [Dmt][dR][Phe(2-(2-methyl-1-propenyl))]G-NH2 (N-terminus assumed; SMILES CC(C)=Cc1ccccc1C[C@H](NC(=O)[C@@H](CCCNC(=N)N)NC(=O)[C@@H](N)Cc1c(C)cc(O)cc1C)C(=O)NCC(N)=O) [Dmt-D-Arg-Phe(2-(2-methyl-1-propenyl)-Gly-NH2] ?
// result 0.57 nM

// query Would you kindly repeat that for [Dmt][dR][Phe(2-vinyl)]G-NH2 (N-terminus assumed; SMILES C=Cc1ccccc1C[C@H](NC(=O)[C@@H](CCCNC(=N)N)NC(=O)[C@@H](N)Cc1c(C)cc(O)cc1C)C(=O)NCC(N)=O) [Dmt-D-Arg-Phe(2-vinyl)-Gly-NH2] ?
// result 0.47 nM

// query Would you kindly repeat that for [Dmt][dR][Bip]G-NH2 (N-terminus assumed; SMILES Cc1cc(O)cc(C)c1C[C@H](N)C(=O)N[C@H](CCCNC(=N)N)C(=O)N[C@@H](Cc1ccc(-c2ccccc2)cc1)C(=O)NCC(N)=O) [Dmt-D-Arg-Phe(4-phenyl)-Gly-NH2] ?
// result 7.08 nM

Data provenance is paper PMC6005765.
